Tested on: Caco-2
PROTOCOL: cell viability relative to DMSO; higher = less toxic
RUN CONDITIONS: 72 h; 10000 nM

- COMPOUND: "Cc1nnc(C[C@@H]2C=C(c3ccc(Cl)cc3)c3ccccc3-n3c(C)nnc32)o1"
  cell viability (%): 68.3
- COMPOUND: "CCCC[C@@H](NC(=O)[C@@H](Cc1cn(C(=O)OC)c2ccccc12)NC(=O)[C@H](CC(C)(C)C)NC(=O)N1[C@H](C)CCC[C@@H]1C)C(=O)O"
  cell viability (%): 104
- COMPOUND: "CCC[C@H](Nc1nc(-c2ccc(NC(=O)NCC)c(OC)c2)ncc1C)c1cccnc1"
  cell viability (%): 38.2
- COMPOUND: "Cn1c(COc2ccc(CC3SC(=O)NC3=O)cc2)nc2ccccc2c1=O (stereo not drawn)"
  cell viability (%): 85.3
- COMPOUND: "CC(N)C12CC3CC(CC(C3)C1)C2 (stereo not drawn)"
  cell viability (%): 103
- COMPOUND: "CCCCC/C=C\\C=C\\CCCCCCCCC(=O)O [trans-10,cis-12-conjugated-linoleic-acid]"
  cell viability (%): 99.6
- COMPOUND: "CCOC1O[C@H]([C@@H](COCc2ccccc2)OCc2ccccc2)[C@H](OCc2ccccc2)[C@H]1O (stereo partly drawn) [tribenoside]"
  cell viability (%): 94
- COMPOUND: "O=C(NCCCCCCNC(=O)ON=C1CCCCC1)ON=C1CCCCC1"
  cell viability (%): 102

====

System: Vero E6
PROTOCOL: relative viability EC50 (midpoint between 100% and the lowest measured viability); higher = less toxic
RUN CONDITIONS: 72 h
Below: a set of entries, each annotated with reported relative viability EC50.

- COMPOUND: "NC(=O)c1cccc(N)c1 [3-amino-benzamide]"
  TGT: "Vero E6"
  VALUE UNITS: "µM"
  BOUND OPERATOR: ">"
  relative viability EC50: 10
- COMPOUND: "CN(c1ncccc1CNc1nc(Nc2ccc3c(c2)CC(=O)N3)ncc1C(F)(F)F)S(C)(=O)=O"
  TGT: "Vero E6"
  VALUE UNITS: "µM"
  BOUND OPERATOR: "="
  relative viability EC50: 1.64
- COMPOUND: "CCCCCCCCCCCC(=O)N(CCO)CCO [lauric-diethanolamide]"
  TGT: "Vero E6"
  VALUE UNITS: "µM"
  BOUND OPERATOR: ">"
  relative viability EC50: 10
- COMPOUND: "O=C(c1c(O)nc2cc(Cl)ccc2c1O)C1CC1"
  TGT: "Vero E6"
  VALUE UNITS: "µM"
  BOUND OPERATOR: ">"
  relative viability EC50: 10
- COMPOUND: "Cc1ccc(S(=O)(=O)c2ccc([N+](=O)[O-])o2)cc1"
  TGT: "Vero E6"
  VALUE UNITS: "µM"
  BOUND OPERATOR: "="
  relative viability EC50: 3.06

====

Tested on: U2OS
PROTOCOL: cell viability relative to DMSO; higher = less toxic
RUN CONDITIONS: 72 h; 1 nM

- COMPOUND: "[N-]=[N+]=N[C@]1(CO)O[C@@H](n2ccc(N)nc2=O)[C@H](O)[C@@H]1O"
  VALUE UNITS: "%"
  cell viability: 98
- COMPOUND: "Cc1cccc(NC(=O)c2ccc(C(F)(F)F)cc2C(=O)O)n1"
  VALUE UNITS: "%"
  cell viability: 100
- COMPOUND: "Cc1nnc(C[C@@H]2C=C(c3ccc(Cl)cc3)c3ccccc3-n3c(C)nnc32)o1"
  VALUE UNITS: "%"
  cell viability: 97.1
- COMPOUND: "CC1(C)[C@@H]2C[C@@H](O)[C@@](C)(O)[C@H]1C2 [2,3-cis/exo-pinanediol]"
  VALUE UNITS: "%"
  cell viability: 96.1
- COMPOUND: "CCOc1ccc(-n2c([C@@H](C)N(Cc3cccnc3)C(=O)Cc3ccc(F)c(C(F)(F)F)c3)nc3ncccc3c2=O)cc1 (racemic)"
  VALUE UNITS: "%"
  cell viability: 104
- COMPOUND: "CC(C)OC(=O)c1cc2c(OC[C@@H](O)CNC(C)(C)C)cccc2[nH]1"
  VALUE UNITS: "%"
  cell viability: 96.1
- COMPOUND: "Nc1nc(-c2nn(Cc3ccccc3F)c3ncccc23)ncc1C1CC1"
  VALUE UNITS: "%"
  cell viability: 90
- COMPOUND: "CS(=O)(=O)Nc1ccc(-c2coc3cc(OCc4cccc(C(=O)O)c4)ccc3c2=O)cc1"
  VALUE UNITS: "%"
  cell viability: 97.8
- COMPOUND: "Oc1ccc2c3c1O[C@H]1c4oc5ccccc5c4C[C@@]4(O)[C@@H](C2)N(CC2CC2)CC[C@]314"
  VALUE UNITS: "%"
  cell viability: 101
- COMPOUND: "CCC1=C(C)CN(C(=O)NCCc2ccc(S(=O)(=O)NC(=O)N[C@H]3CC[C@H](C)CC3)cc2)C1=O [glimepiride]"
  VALUE UNITS: "%"
  cell viability: 98.9
- COMPOUND: "CN[C@@H](C)CC1CCCCC1"
  VALUE UNITS: "%"
  cell viability: 104
- COMPOUND: "O=C(NC[C@H]1CN(c2ccc(N3CCOCC3=O)cc2)C(=O)O1)c1ccc(Cl)s1"
  VALUE UNITS: "%"
  cell viability: 103
- COMPOUND: "CC(=O)[C@H]1CC[C@H]2[C@@H]3C[C@H](C)C4=CC(=O)CC[C@]4(C)[C@H]3[C@@H](O)C[C@]12C"
  VALUE UNITS: "%"
  cell viability: 97.6
- COMPOUND: "NC(=O)c1ccc(-c2nc(-c3ccccn3)c(-c3ccc4c(c3)OCO4)[nH]2)cc1"
  VALUE UNITS: "%"
  cell viability: 91.2
- COMPOUND: "O=C(Nc1cccnc1)c1cc(-c2ccnc(F)c2)ccc1OCc1ccccc1"
  VALUE UNITS: "%"
  cell viability: 95.6
- COMPOUND: "C[C@H]1CC[C@H](n2c3cnccc3c3cnc(Nc4ccc5c(n4)CCN(C(=O)CO)C5)nc32)CC1"
  VALUE UNITS: "%"
  cell viability: 98.8
- COMPOUND: "Oc1cc2c(cc1O)[C@H](Cc1cccc3ccccc13)NCC2"
  VALUE UNITS: "%"
  cell viability: 101
- COMPOUND: "CC1=C(CC(=O)O)c2cc(F)ccc2/C1=C\\c1ccc([S+](C)[O-])cc1 (stereo not given)"
  VALUE UNITS: "%"
  cell viability: 101
- COMPOUND: "CCC[C@H](Nc1nc(-c2ccc(NC(=O)NCC)c(OC)c2)ncc1C)c1cccnc1"
  VALUE UNITS: "%"
  cell viability: 97.2
- COMPOUND: "COc1ccc(C(=O)Nc2sc3c(c2C(N)=O)CCCC3)cc1OC"
  VALUE UNITS: "%"
  cell viability: 96.8
- COMPOUND: "N#C/C(=C\\c1ccc(O)cc1)C(=O)O"
  VALUE UNITS: "%"
  cell viability: 101
- COMPOUND: "Cc1c(C)c2c(c(C)c1O)CCC(C)(C(=O)O)O2 (stereo not given)"
  VALUE UNITS: "%"
  cell viability: 104
- COMPOUND: "Nc1[nH]cnc2ncnc1-2"
  VALUE UNITS: "%"
  cell viability: 93.8
- COMPOUND: "CC(=O)Nc1nnc(S(N)(=O)=O)s1 [acetazolamide]"
  VALUE UNITS: "%"
  cell viability: 103
- COMPOUND: "c1ccc2c(-c3cnn4cc(-c5ccc(N6CCNCC6)cc5)cnc34)ccnc2c1"
  VALUE UNITS: "%"
  cell viability: 95.1
- COMPOUND: "C=CC(=O)Nc1cc(Nc2nccc(-c3cn(C)c4ccccc34)n2)c(OC)cc1N(C)CCN(C)C"
  VALUE UNITS: "%"
  cell viability: 95.7
- COMPOUND: "CC(=O)c1cc2c(o1)C(=O)c1ccccc1C2=O"
  VALUE UNITS: "%"
  cell viability: 102
- COMPOUND: "O=c1[nH]c(CCl)nc2sc3c(c12)CCCC3"
  VALUE UNITS: "%"
  cell viability: 103
- COMPOUND: "N#Cc1cccc(-c2c[nH]c3ncnc(N4CCOCC4)c23)c1"
  VALUE UNITS: "%"
  cell viability: 106
- COMPOUND: "O=C(O)Cc1cccc(OCCCN(Cc2cccc(C(F)(F)F)c2Cl)CC(c2ccccc2)c2ccccc2)c1"
  VALUE UNITS: "%"
  cell viability: 100
- COMPOUND: "CCCCC[C@H](O)/C=C/[C@H]1[C@H](O)CC(=O)[C@@H]1CCCCCCC(=O)O"
  VALUE UNITS: "%"
  cell viability: 104
- COMPOUND: "Clc1cccc(Nc2nnc(-c3ccccc3)c3ccccc23)c1"
  VALUE UNITS: "%"
  cell viability: 95
- COMPOUND: "CC1/C=C/C=C/C=C/C=C/C=C/C=C/C=C/C(OC2O[C@H](C)[C@@H](O)[C@H](N)[C@@H]2O)CC(O)C(C(=O)O)C(O)CC(=O)CC(O)CC(O)CC(O)CC(=O)CCCC(=O)CC(=O)OC1C(C)CC(C)C(O)CC(=O)c1ccc(N)cc1 (stereo not given in full)"
  VALUE UNITS: "%"
  cell viability: 105
- COMPOUND: "CN(C(=O)c1ccc(F)cc1C(F)(F)F)C1CCN(c2nnc(-c3ccnn3C)c3ccccc23)CC1"
  VALUE UNITS: "%"
  cell viability: 94.9
- COMPOUND: "CC(C)[C@H](NS(=O)(=O)c1ccc(-c2ccc(Br)cc2)cc1)C(=O)O"
  VALUE UNITS: "%"
  cell viability: 101
